MEASUREMENT DESCRIPTION: protein stability index of a GFP-peptide fusion (GPS, HEK-293T) (PSI 1-6); higher = more stable;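 note: 24-mer peptide tiles fused after GFP, lentivirally expressed, FACS-sorted into six equal bins by GFP/DsRed ratio, decoded by Illumina sequencing, PSI is the read-weighted mean bin number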
MEASUREMENT CONTEXT: treatment: MLN4924 1 uM, 8 h; c terminus: a fixed tail appended
Please use true (1) whenever protein stability index is not below 3, and false (0) whenever it is.

Worked examples follow.
[
  {
    "RECORD SEQUENCE": "LHEEEHVLLMAICIVSPDRPGVQD [VDR]",
    "LABEL CLASS": "false (0)"
  },
  {
    "RECORD SEQUENCE": "EVDFFQRYFIADLPHLQDSFVDKL [INTS4]",
    "LABEL CLASS": "false (0)"
  },
  {
    "RECORD SEQUENCE": "EEEEGTRSPTLEPPRGRSEAPDSL [SMG5]",
    "LABEL CLASS": "true (1)"
  },
  {
    "RECORD SEQUENCE": "RGVHCWVCDESVRKLSSAVRSGIV [PRIM1]",
    "LABEL CLASS": "false (0)"
  },
  {
    "RECORD SEQUENCE": "GAAVVRPPGHHAEQDAACGFCFFN [HDAC6]",
    "LABEL CLASS": "true (1)"
  }
]

Is it the case that QIEGLNEELAYLKKNHEEEMKEFS [KRT15] has protein stability index reaching or exceeding 3? true (1)

---

MEASUREMENT DESCRIPTION: protein stability index of a GFP-peptide fusion (GPS, HEK-293T) (PSI 1-6); higher = more stable
MEASUREMENT CONTEXT: treatment: DMSO; c terminus: a fixed tail appended
# maps each entry to its protein stability index
Give only the figure.

[
  {
    "RECORD SEQUENCE": "EKVNEGKYRSYEEFKADAQLLLHN [ZMYND11]",
    "OUTCOME MEASURE": "protein stability index",
    "MEASURED": 4.1
  },
  {
    "RECORD SEQUENCE": "SEADPQALLQAMKDLDGMDADILG [FBF1]",
    "OUTCOME MEASURE": "protein stability index",
    "MEASURED": 5.28
  },
  {
    "RECORD SEQUENCE": "SYQEEAAMELKVEDPFYWVSPGVL [MOG]",
    "OUTCOME MEASURE": "protein stability index",
    "MEASURED": 3.25
  },
  {
    "RECORD SEQUENCE": "IRLMQRCWQGDPRVRPTFQEITSE [RIPK4]",
    "OUTCOME MEASURE": "protein stability index",
    "MEASURED": 2.8
  },
  {
    "RECORD SEQUENCE": "DSYCDALTRPEPVHEFCAGRECQP [ADAMTSL2]",
    "OUTCOME MEASURE": "protein stability index",
    "MEASURED": 4.86
  },
  {
    "RECORD SEQUENCE": "LNMRSTYAKLAAVAVFFIMLIVYV [SEC22B]",
    "OUTCOME MEASURE": "protein stability index",
    "MEASURED": 3.14
  }
]

Shift focus to the following entry.
Would you kindly share the measured protein stability index for RMKEPSSPPPAPTSSTFGLQDGNL [CHCHD6] ? 4.63
